- Test system: Enterococcus faecalis
- Experiment: In vitro antibacterial activity against Enterococcus faecalis NCTC 12201 (E. f. 153) vancomycin resistant
- Type: functional

{"Smiles input": "O=C1CCC(=O)N1C[C@H]1CN(c2cc(F)c3c(c2)OC[C@@H]2CCCN32)C(=O)O1", "Target entity": "Enterococcus faecalis", "Unit abbrev": "µg/mL", "Relation operator": ">", "MIC": 32}
{"Smiles input": "CC(=O)NC[C@H]1CN(c2cc(F)c3c(c2)OC[C@@H]2CCCN32)C(=O)O1", "Target entity": "Enterococcus faecalis", "Unit abbrev": "µg/mL", "Relation operator": "=", "MIC": 2}
{"Smiles input": "CCC(=O)NC[C@H]1CN(c2cc(F)c3c(c2)OC[C@@H]2CCCN32)C(=O)O1", "Target entity": "Enterococcus faecalis", "Unit abbrev": "µg/mL", "Relation operator": "=", "MIC": 8}
{"Smiles input": "CCCC(=O)NC[C@H]1CN(c2cc(F)c3c(c2)OC[C@@H]2CCCN32)C(=O)O1", "Target entity": "Enterococcus faecalis", "Unit abbrev": "µg/mL", "Relation operator": "=", "MIC": 4}
{"Smiles input": "O=C1O[C@@H](C/N=C(/S)N2CCOCC2)CN1c1cc(F)c2c(c1)OC[C@@H]1CCCN21", "Target entity": "Enterococcus faecalis", "Unit abbrev": "µg/mL", "Relation operator": "=", "MIC": 16}
{"Smiles input": "CC(=O)NC[C@H]1CN(c2ccc3c(c2)OC[C@@H]2CCCN32)C(=O)O1", "Target entity": "Enterococcus faecalis", "Unit abbrev": "µg/mL", "Relation operator": "=", "MIC": 16}
{"Smiles input": "O=C1O[C@@H](C/N=C(/S)N2CCSCC2)CN1c1cc(F)c2c(c1)OC[C@@H]1CCCN21", "Target entity": "Enterococcus faecalis", "Unit abbrev": "µg/mL", "Relation operator": "=", "MIC": 16}
{"Smiles input": "O=C1O[C@@H](C/N=C(/S)N2CCCC2)CN1c1cc(F)c2c(c1)OC[C@@H]1CCCN21", "Target entity": "Enterococcus faecalis", "Unit abbrev": "µg/mL", "Relation operator": "=", "MIC": 32}
{"Smiles input": "O=CNC[C@H]1CN(c2ccc3c(c2)OC[C@@H]2CCCN32)C(=O)O1", "Target entity": "Enterococcus faecalis", "Unit abbrev": "µg/mL", "Relation operator": "=", "MIC": 16}
{"Smiles input": "CCC/C(S)=N\\C[C@H]1CN(c2cc(F)c3c(c2)OC[C@@H]2CCCN32)C(=O)O1", "Target entity": "Enterococcus faecalis", "Unit abbrev": "µg/mL", "Relation operator": "=", "MIC": 1}
{"Smiles input": "CCOC(=O)NC[C@H]1CN(c2cc(F)c3c(c2)OC[C@@H]2CCCN32)C(=O)O1", "Target entity": "Enterococcus faecalis", "Unit abbrev": "µg/mL", "Relation operator": "=", "MIC": 8}
{"Smiles input": "CC/C(S)=N\\C[C@H]1CN(c2cc(F)c3c(c2)OC[C@@H]2CCCN32)C(=O)O1", "Target entity": "Enterococcus faecalis", "Unit abbrev": "µg/mL", "Relation operator": "=", "MIC": 0.5}
{"Smiles input": "C=CC(=O)NC[C@H]1CN(c2cc(F)c3c(c2)OC[C@@H]2CCCN32)C(=O)O1", "Target entity": "Enterococcus faecalis", "Unit abbrev": "µg/mL", "Relation operator": "=", "MIC": 4}
{"Smiles input": "CS/C(S)=N\\C[C@H]1CN(c2cc(F)c3c(c2)OC[C@@H]2CCCN32)C(=O)O1", "Target entity": "Enterococcus faecalis", "Unit abbrev": "µg/mL", "Relation operator": "=", "MIC": 1}
{"Smiles input": "CCCCCCC(=O)NC[C@H]1CN(c2cc(F)c3c(c2)OC[C@@H]2CCCN32)C(=O)O1", "Target entity": "Enterococcus faecalis", "Unit abbrev": "µg/mL", "Relation operator": "=", "MIC": 32}
{"Smiles input": "C=CC(=O)NC[C@H]1CN(c2ccc3c(c2)OC[C@@H]2CCCN32)C(=O)O1", "Target entity": "Enterococcus faecalis", "Unit abbrev": "µg/mL", "Relation operator": "=", "MIC": 8}
{"Smiles input": "O=CNC[C@H]1CN(c2cc(F)c3c(c2)OC[C@@H]2CCCN32)C(=O)O1", "Target entity": "Enterococcus faecalis", "Unit abbrev": "µg/mL", "Relation operator": "=", "MIC": 4}
{"Smiles input": "CCCCCC(=O)NC[C@H]1CN(c2cc(F)c3c(c2)OC[C@@H]2CCCN32)C(=O)O1", "Target entity": "Enterococcus faecalis", "Unit abbrev": "µg/mL", "Relation operator": "=", "MIC": 32}
{"Smiles input": "COC(=O)NC[C@H]1CN(c2cc(F)c3c(c2)OC[C@@H]2CCCN32)C(=O)O1", "Target entity": "Enterococcus faecalis", "Unit abbrev": "µg/mL", "Relation operator": "=", "MIC": 2}
{"Smiles input": "N=C(S)NC[C@H]1CN(c2cc(F)c3c(c2)OC[C@@H]2CCCN32)C(=O)O1", "Target entity": "Enterococcus faecalis", "Unit abbrev": "µg/mL", "Relation operator": "=", "MIC": 1}
